- Test system: PC12 cells that express mutant G93A SOD1
- ASSAY_COMMENT: Mutant SOD1-induced cytotoxicity protection assay
- DETAILS: Rattus norvegicus, PC-12, read-out: Best EC50, PC12 G93A SOD1 cells, MG132, calcein-AM viability
pEC50: −log10 of the molar value.
QUANTITY_KIND: pEC50

In [3]: df
Out[3]:
                                 smiles_str  result
0       O=c1cc(COc2ccc(Cl)c(Cl)c2)[nH][nH]1    6.89
1  O=c1cc(CS(=O)(=O)c2cc(Cl)cc(Cl)c2)[nH][nH]1    6.44
2     CC(C)(C)c1cccc(OCc2cc(=O)[nH][nH]2)c1    5.97
